ETAG (OD) values, listed per item
target_under_test: T1, antibody raised against ETAG
T1 construct: Coated at 500 ng/well; also called E-tag antibody
method: phage ELISA
Method: For analysis of individual target binders, colonies were picked and phage prepared as described above using helper phage, M13KO7. Ninety-six-well microtiter plates were coated with 500 ng/well of specific target protein, 500 ng/well lactate dehydrogenase (LDH) irrelevant or non-specific target, 500 ng/well of positive control antibody raised against ETAG, and negative control of non-fat milk powder-PBS 2% at 4° C. overnight. […] Plates were analyzed at 405 nm. […]
property_label: ETAG (OD)

1) VSGVPDGSMRAAQLASGYWCAAAGAPVPYPDPLEPRP [DGI-2-20F-PP-G2]; 5.6 OD
2) SVTISTSCRTGCPAGYLRRDAAAGAPVPYPDPLEPRP [DGI-2-20F-PP-D2]; 30.8 OD
3) SIILAGCVWVMPCGQNLGGVAAAGAPVPYPDPLEPRP [DGI-2-20F-PP-C4]; 36.1 OD

These data points were gathered from patent US7056679.
